Where do these numbers come from? They come from ChEMBL document CHEMBL3400002.

Entries annotated with measured Activity
Target: Lysine-specific histone demethylase 1A (Homo sapiens)
Assay: Activation of human recombinant LSD1 at 10 uM after 30 mins to 4 hrs by fluorescence assay relative to control
measured_parameter: Activity (%)

>>> quantitative_readout("CCCNC(=O)NCCCNCCCCCCNCCCNC(=O)NCCC")
119
>>> quantitative_readout("O=C(NCCCNCCCCCCNCCCNC(=O)NCc1ccccc1)NCc1ccccc1")
110
>>> quantitative_readout("O=C(NCCCNCCCCCNCCCNC(=O)Nc1ccccc1)Nc1ccccc1")
163
>>> quantitative_readout("CCNC(=O)NCCCNCCCCCCNCCCNC(=O)NCC")
119
